Sourced from patent US20250215104A1

The binders listed here are annotated with their koff.
target: T1, cynomolgus soluble urokinase plasminogen activator receptor (suPAR) (cynomolgus, UniProt Q9GK78 23-303, limits assumed); assay: BLI (Octet) off-rate screen of scFv clones
T1 construct: Column head says only 'cynomologus'; also called cynomolgus suPAR; cynomolgus uPAR
T1 sequence (Q9GK78 23-303 limits assumed): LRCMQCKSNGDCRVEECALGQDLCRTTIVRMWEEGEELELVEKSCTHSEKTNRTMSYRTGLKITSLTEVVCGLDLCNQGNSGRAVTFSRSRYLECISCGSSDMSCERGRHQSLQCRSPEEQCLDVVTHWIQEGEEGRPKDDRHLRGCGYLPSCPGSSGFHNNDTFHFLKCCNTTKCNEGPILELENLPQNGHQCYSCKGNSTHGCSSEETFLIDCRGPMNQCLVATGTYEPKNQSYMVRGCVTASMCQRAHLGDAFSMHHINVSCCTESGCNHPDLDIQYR
OUTCOME_MEASURE: koff

1) suPAR_DB05_D10 (scFv, V domains shown, Screened as scFv) VH: QVQLVQSGAEVKKPGASVKVSCKASGYTFSNYYIHWVRQAPGQGLEWMGWIDHENGNTIYDQKFQGRVTMTRDTSTSTVYMELSSLRSEDTAVYYCARGTDVDWFVYWGQGTLVTVSS VL: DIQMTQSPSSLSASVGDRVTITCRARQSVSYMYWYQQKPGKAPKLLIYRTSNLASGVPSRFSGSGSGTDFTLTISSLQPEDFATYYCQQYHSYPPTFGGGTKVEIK: 0.000851 s⁻¹
2) suPAR_DB05_B11 (scFv, V domains shown, Screened as scFv) VH: QVQLVQSGAEVKKPGASVKVSCKASGYTFSAYYMHWVRQAPGQGLEWMGWIDHENGNTIYAQKFQGRVTMTRDTSTSTVYMELSSLRSEDTAVYYCARGYDVDWFVYWGQGTLVTVSS VL: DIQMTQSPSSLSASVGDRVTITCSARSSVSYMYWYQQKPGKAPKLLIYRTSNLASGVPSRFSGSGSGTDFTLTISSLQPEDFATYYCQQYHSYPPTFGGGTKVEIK: 0.000431 s⁻¹
